As shown below, each of these compounds has a reported mass density value.
details: 293.15 K; 101.33 kPa; Liquid; Buoyancy - hydrostatic balance
// note: answer is a bare numeric in kg/m3

[[record]]
compound_string = "CO"
unit_abbreviation = "kg/m3"
endpoint_result = 792.2

[[record]]
compound_string = "O"
unit_abbreviation = "kg/m3"
endpoint_result = 998.4

[[record]]
compound_string = "C=CCO"
unit_abbreviation = "kg/m3"
endpoint_result = 854


Now for the compound whose mass density we want.
query: # mass density lookup, item CCO
result: 790

----------
assay: refractive index (Na D-line) (dimensionless); conditions: 293.15 K; 101.33 kPa; Liquid; Standard Abbe refractometry
measured_quantity: refractive index
Answer using only a numeral; do not append any unit.

Reference set, count: 2
[[record]]
compound = "O [water]"
endpoint_result = 1.3328

[[record]]
compound = "CCO [ethanol]"
endpoint_result = 1.3616


query: Item CO [methanol] has what recorded refractive index?
result: 1.3276

query: Look up refractive index for this compound: C=CCO [2-propenol]
result: 1.4119
